Entries and their growth inhibition
assay: NCI Yeast Anticancer Drug Screen. Data for the mec2-1 strain (AID 157); details: S. cerevisiae mec2-1 strain, at 50.0 µM, active compounds read high
This is part of a sample that, as a whole, favours compounds with a hit. Of some 79,000 tested, about 15% had one in any assay.

- compound: "CC1OC(CC(=O)O)CC2=C1C(=O)c1c(O)cccc1C2=O (configuration not stated)"
  growth inhibition / %: -8.3
- compound: "O=C(CC1=NC2NN(c3ccccc3)C(=O)C2=C1CC(=O)c1ccc(F)cc1)c1ccc(F)cc1 (configuration not stated)"
  growth inhibition / %: 20.6
- compound: "OC(COc1ccc2ccccc2c1)COc1ccc2ccccc2c1"
  growth inhibition / %: -22.1
- compound: "N#CC(CN1CCCCC1)c1ccccc1 (configuration not stated)"
  growth inhibition / %: 1.55
- compound: "O=S(=O)(O)SCC1=NCCN1"
  growth inhibition / %: -5.1
- compound: "O=S(=O)(SC(S(=O)(=O)c1ccccc1)S(=O)(=O)c1ccccc1)c1ccccc1"
  growth inhibition / %: 9.35
- compound: "CCOCCNCc1ccc(Cl)cc1Cl"
  growth inhibition / %: -1.45
- compound: "Cn1ncc2c(Nc3cc(Cl)ccc3Cl)ncnc21"
  growth inhibition / %: -1.9
- compound: "CC(=O)OCc1ccnc2ccc(OC(C)=O)cc12"
  growth inhibition / %: 15.4
- compound: "Cn1c(=S)[nH]c2cc(Cl)c(Cl)cc21"
  growth inhibition / %: -3.05
- compound: "CCCCOB1OC(c2ccccc2)(c2ccccc2)c2ccccc2C(c2ccccc2)(c2ccccc2)O1"
  growth inhibition / %: 3.65
- compound: "CC(=O)O[C@H]1C[C@]2(C)C(CCC3O[C@@]32C)[C@@]2(CC(c3ccoc3)OC2O)[C@@H]1C (some centres not stated)"
  growth inhibition / %: -16.1
- compound: "O=[N+]([O-])c1ccccc1C1SCc2nc3ccccc3n21 (configuration not stated)"
  growth inhibition / %: 10.2
- compound: "CO[C@H]1CC[C@@]2(C)C(=CC[C@H]3[C@@H]4CC[C@H]([C@H](C)CCCC(C)C)[C@@]4(C)CC[C@@H]32)C1"
  growth inhibition / %: -20.4
- compound: "CC(=O)N=Cc1c(O)[nH]c2ccccc12"
  growth inhibition / %: 11.7
- compound: "CC(=O)OCN(C)N=Nc1ccc([N+](=O)[O-])cc1"
  growth inhibition / %: 10.5
- compound: "CCOC(=O)COc1cc2c(cc1C(C)c1ccc(OCc3ccccc3)c(OC)c1)OCO2 (configuration not stated)"
  growth inhibition / %: -7.55
- compound: "Nc1ccc2c(c1)Cc1c-2cc(Br)c(N)c1Br"
  growth inhibition / %: -6.85
- compound: "CC(O)C1(O)C(O)CC(OC2c3cc4c(c(O)c3[C@@H]3C[C@@]2(C)OC32C=c3cc[nH]c3=N2)C(=O)c2cccc(O)c2C4=O)OC1C (some centres not stated)"
  growth inhibition / %: 41.1
- compound: "CCOC(=O)c1c(-c2ccc(Cl)cc2)c(C#N)c(=S)n(C2OC(COC(C)=O)C(OC(C)=O)C(OC(C)=O)C2OC(C)=O)c1C (configuration not stated)"
  growth inhibition / %: -8.75
- compound: "CCOC(=O)C(Cc1ccccc1C)(NC(C)=O)C(=O)OCC"
  growth inhibition / %: -0.25
- compound: "O=C1CCC2(O1)c1ccc(O)cc1Oc1cc(O)ccc12"
  growth inhibition / %: -24.1

Provenance of the data: PubChem BioAssay (NCI)
